# Tested on: ACHN renal
# assayProcedure: NCI-60 one-dose screen, 48 h (100 = growth as untreated, 0 = no growth, -100 = all killed)
# reportedConditions: 10 µM unless noted
This is part of a sample that, as a whole, favours compounds with a hit. Of some 83,000 tested, about 20% had one in any assay.
readoutLabel: growth (%)

> print(dat)
                                   compound  resultvalue
1  COc1cc(/C=C2\C(=O)N(CCCCn3c4ccccc4c(=O)c4ccccc43)c3ccccc32)cc(OC)c1O         63.3
2  O=C(CC1(O)C(=O)Nc2ccc(Br)cc21)c1ccc(Cl)cc1 (configuration not stated)          113
3  Cc1ccc(/C=C/c2c(C(=O)/C=C/c3ccccc3)c(C)nc3ccccc23)cc1         8.19
4  Cc1ccc(-c2nc3nc(-c4ccccc4)nc(N4CCN(S(=O)(=O)c5ccccc5)CC4)c3o2)cc1           72
5  O=C1/C(=C/c2ccc(-c3ccccc3C(F)(F)F)o2)SC(=S)N1CCc1ccc(O)cc1         66.3
6  COc1ccc(/C(C)=C(\c2ccc(OCCN3CCCCCC3)cc2)c2ccc(OC(=O)C3CCCCC3)cc2)cc1        -88.5
7  CC(=O)OC[C@]12CCC(C)(C)C=C1[C@H]1CC[C@@H]3[C@@]4(C)CCCNC(C)(C)[C@@H]4CC[C@@]3(C)[C@]1(C)CC2         99.3

###

# System: OVCAR-4 ovarian
# assayProcedure: NCI-60 one-dose screen, 48 h
# reportedConditions: 10 µM unless noted
Compounds without any hit were thinned out: in the full panel of roughly 83,000, 20% have a hit. The source made the active and inactive calls. The calls were made as follows: active = growth percent below 10; inactive = the rest.
Outcome codes: active, inactive

molecule	subjectOfTest	classLabel
COc1cc(OC)cc(-c2ccc(-c3ccc(C(=N)N)cn3)s2)c1	OVCAR-4 ovarian	inactive
O=C(NCc1cccnc1)/C(=C\c1ccc(Br)cc1)S(=O)(=O)c1ccccc1	OVCAR-4 ovarian	active
NCCOCCOc1ccccc1	OVCAR-4 ovarian	inactive
Cc1cccc(-c2nnc(SCC(=O)Nc3ncc(Cc4ccccc4)s3)n2N2C(=O)CSC2=S)c1	OVCAR-4 ovarian	active
CCOC(=O)c1nc2c3ccccc3cnn2c1C(=O)c1ccc(OC)cc1	OVCAR-4 ovarian	inactive
Cn1c(=O)c2c(nc(Nc3cc(=O)[nH]c(=O)[nH]3)n2Cc2ccccc2)n(C)c1=O	OVCAR-4 ovarian	inactive
C=C(CNCCc1ccc(O)cc1)[C@@H]1CC[C@]2(CO)CC[C@]3(C)[C@H](CC[C@@H]4[C@@]5(C)CCC(NCCc6ccc(O)cc6)C(C)(C)[C@@H]5CC[C@]43C)[C@@H]12 (some centres not stated)	OVCAR-4 ovarian	active
Cn1ccnc1CN1CCSC(C(=O)Nc2ccccc2)C1 (configuration not stated)	OVCAR-4 ovarian	inactive
CC1(Cc2ccccc2)CC2=C(C(=O)O1)C(c1ccccc1)NC(=O)N2 (configuration not stated)	OVCAR-4 ovarian	inactive
COc1cc(-c2nc(SCCC(C)C)nc(Nc3ccc(F)cc3)c2C#N)cc(OC)c1OC	OVCAR-4 ovarian	active
C#CCOc1cccc(Nc2ncc3ncn(C4CCN(C(=O)CCl)C4)c3n2)c1 (configuration not stated)	OVCAR-4 ovarian	inactive
Cc1[nH]c(C(=O)Nc2nc3ccc(NC(=O)CCN)cc3s2)c(Cl)c1Cl	OVCAR-4 ovarian	inactive
Nc1nc(N)c2c(n1)NC(c1ccc(Cl)cc1)CC(c1cccc(Nc3ccncc3)c1)=N2 (configuration not stated)	OVCAR-4 ovarian	inactive
COc1ccc(C(c2cc(OC)c(OC)c(OC)c2)n2ccnc2)cc1O (configuration not stated)	OVCAR-4 ovarian	inactive
Cc1ccc(NC(=O)c2sc3nc(C)c(C(=O)c4ccccc4)cc3c2N)cc1	OVCAR-4 ovarian	inactive
Nc1ccc(/C=N/Nc2ccnc3c(N)cccc23)c2cccnc12	OVCAR-4 ovarian	active
Nc1ncnc2c1C(c1ccc([N+](=O)[O-])cc1)c1sc3c(F)cccc3c1O2 (configuration not stated)	OVCAR-4 ovarian	inactive
Cc1nc(-n2[nH]c(=O)ccc2=O)sc1N=Nc1ccccc1	OVCAR-4 ovarian	inactive
COc1cc(Cl)cc(-c2nn(C(=O)NS(=O)(=O)c3ccc(Cl)cc3)cc2-c2ccncc2)c1	OVCAR-4 ovarian	inactive
COc1ccc(-c2nc(Cl)c3c(C)nn(-c4ccc(F)cc4)c3n2)cc1	OVCAR-4 ovarian	inactive
CON1CCC[C@]2(C)[C@H]3CC[C@@H]4[C@H]5[C@@H](O)C(C)(C)CC[C@]5(CO)CC[C@@]4(C)[C@]3(C)CC[C@H]2C1(C)C	OVCAR-4 ovarian	inactive
COc1cccc(NC(=O)c2sc3nc(C)c(C(O)c4ccccc4)cc3c2N)c1 (configuration not stated)	OVCAR-4 ovarian	inactive

###

# System: DU-145 prostate
# assayProcedure: NCI-60 one-dose screen, 48 h (100 = growth as untreated, 0 = no growth, -100 = all killed)
# reportedConditions: 10 µM unless noted
This is part of a sample that, as a whole, favours compounds with a hit. Of some 83,000 tested, about 20% had one in any assay.
readoutLabel: growth (%)

compound	readoutLabel	resultValue
C=C(C)[C@@H]1CC[C@]2(C(=O)O)CC[C@]3(C)[C@H](CC[C@@H]4[C@@]5(C)CCC(N)C(C)(C)[C@@H]5CC[C@]43C)[C@@H]12 (stereo partly drawn)	growth	33.1
Clc1ccc(CNc2ccc3nc(CCC4CCCCC4)[nH]c3c2)cc1	growth	83.5
COc1nc2ccc(C)cc2cc1/C=[N+](\[O-])c1ccccc1	growth	95.5
CCN(CC)/C([O-])=c1\cccc\c1=C1\N=C(c2ccccc2)N=C1[n+]1ccc(-c2ccccc2)cc1	growth	102
COc1ccccc1/C=C1\COc2ccc(O)cc2C1=O	growth	96.4
Brc1ccc(/C=C(/C2=NCCN2)n2ccc3ccccc32)cc1	growth	63.1
CC1=CC=C(NC(=O)/C=C/c2ccccc2)CC1Nc1nccc(-c2cccnc2)n1 (stereo not drawn)	growth	30.9
O=C1C=C(Nc2ccccc2)c2ncccc2C1=O	growth	-95.4
Cn1cc(-c2nc3c(F)cc4[nH]ncc4c3c3c2CCCC3)c(C(F)F)n1	growth	78.7
C/C=C(/C)C(=O)O[C@@H]1CC(C)(C)CC2C34OC(=O)[C@@]21CC[C@@]3(C)[C@]1(C)CCC2C(C)(C)C(=O)CC[C@]2(C)C1C[C@@H]4Cl (stereo partly drawn)	growth	104
CCCCC1=C(Br)C(=O)c2nc(C)ccc2C1=O	growth	101
CN(C)CCN1C(=O)c2c(c3c4ccccc4n4c3c3c2c2ccccc2n3C2CC(O)C(O)C4(C)O2)C1=O (stereo not drawn)	growth	16.9
C=C(CNCCc1ccc(O)cc1)[C@@H]1CC[C@]2(CO)CC[C@]3(C)[C@H](CC[C@@H]4[C@@]5(C)CCC(NCCc6ccc(O)cc6)C(C)(C)[C@@H]5CC[C@]43C)[C@@H]12 (stereo partly drawn)	growth	-98.6

###

# System: SK-MEL-2 melanoma
# assayProcedure: NCI-60 one-dose screen, 48 h
# reportedConditions: 10 µM unless noted
Compounds without any hit were thinned out: in the full panel of roughly 83,000, 20% have a hit. Activity calls are given as the source filed them. How the source made its calls: active means growth percent below 10; inactive means the rest.
Outcome codes: active, inactive

> print(dat)
                                    compound      subjectoftest  classlabel
 1  C=C1C(=O)O[C@H]2[C@H]1CC/C(CNS(=O)(=O)c1ccc3ccccc3c1)=C\CC[C@@]1(C)O[C@@H]21  SK-MEL-2 melanoma    inactive
 2   C#CCn1cnc2cnc(Nc3cccc(NC(=O)CCl)c3)nc21  SK-MEL-2 melanoma      active
 3  Cn1cc(-c2nc3c(F)cc4[nH]ncc4c3c3c2CCCC3)c(C(F)F)n1  SK-MEL-2 melanoma    inactive
 4                      Cc1ccccc1SSc1ccccc1C  SK-MEL-2 melanoma    inactive
 5  c1ccc(Cc2cccc[n+]2C(c2ccccc2)c2ccccc2)cc1  SK-MEL-2 melanoma    inactive
 6  Cc1ccc(-c2nc(SCC(=O)c3ccc(C#N)cc3)[nH]c(=O)c2C#N)cc1  SK-MEL-2 melanoma    inactive
 7  CCc1c2c(nc3ccc(OCc4ccc(B5OC(C)(C)C(C)(C)O5)cc4)cc13)-c1cc3c(c(=O)n1C2)COC(=O)[C@]3(O)CC  SK-MEL-2 melanoma    inactive
 8  Cc1ccc(S(=O)(=O)Nc2cc(Sc3ccccc3)c(O)c3ccccc23)cc1  SK-MEL-2 melanoma    inactive
 9                    NC1=CC(=O)c2cccnc2C1=O  SK-MEL-2 melanoma      active
10  Nc1n[nH]c2cccc(C#Cc3cccc(NC(=O)c4ccc(N5CCOCC5)c(C(F)(F)F)c4)c3)c12  SK-MEL-2 melanoma      active
11  COCCn1cc(-c2nc(-c3cn(CCOC)c4ncccc34)cs2)c2ccccc21  SK-MEL-2 melanoma    inactive
12  COC(=O)/C=C1/SC(N2N=C(c3cccs3)CC2c2ccc(F)cc2)=NC1=O (stereo not drawn)  SK-MEL-2 melanoma    inactive
13             Cc1ccc2[nH]c(=S)[nH]c(=O)c2c1  SK-MEL-2 melanoma    inactive

The reported measurements were obtained from PubChem BioAssay (NCI).
